target: human CK1δ (Cos 7 cells cotransfected with mouse Per3-GFP) (Homo sapiens); construct: His tag of the vector pcDNA4/hisA (only the vector name is printed); test: CK1 WCA HCS nuclear translocation assay (CK1δ); conditions: inhibition of mPer3-GFP translocation to the nucleus, overnight exposure, read-out: CK1 δ WCA EC50
Sequence (P48730 whole entry): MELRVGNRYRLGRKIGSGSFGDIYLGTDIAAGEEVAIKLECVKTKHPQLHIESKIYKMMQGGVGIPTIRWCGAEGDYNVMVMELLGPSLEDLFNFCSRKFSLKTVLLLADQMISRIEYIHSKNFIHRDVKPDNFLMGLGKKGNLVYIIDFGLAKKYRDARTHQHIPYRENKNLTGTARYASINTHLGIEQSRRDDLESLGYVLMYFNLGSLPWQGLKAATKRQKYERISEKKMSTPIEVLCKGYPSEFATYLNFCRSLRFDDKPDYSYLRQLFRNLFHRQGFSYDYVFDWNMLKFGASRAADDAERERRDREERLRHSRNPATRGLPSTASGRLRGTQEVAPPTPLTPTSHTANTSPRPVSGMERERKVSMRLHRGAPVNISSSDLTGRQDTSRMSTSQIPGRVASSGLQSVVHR
pEC50: −log10 of the molar value.
Classify as follows. Reported pEC50 greater than or equal to 7: YES. Reported pEC50 below: NO.

Exercise: Say whether `CN(C)C(=O)CN1Cc2nccc(-c3cn(C)nc3-c3ccc(F)cc3)c2C1=O` shows pEC50 of 7 or more.
Key: NO

Exercise: hey, is pEC50 for this one >= 7? CC1COc2c(-c3cn(C)nc3-c3ccc(F)cc3)ccnc2CN1 (centres unmarked)
Key: NO

Exercise: Threshold query (pEC50 >= 7) on `CC(C)OC(=O)CN1Cc2nccc(-c3cn(C)nc3-c3ccc(F)cc3)c2C1=O`
Key: NO

Exercise: Hi, just wondering whether `CC(C)C(=O)N1Cc2nccc(-c3cn(C)nc3-c3ccc(F)cc3)c2C1` shows pEC50 of 7 or higher.
Key: YES

Exercise: Is pEC50 for `COCCN1Cc2nccc(-c3cn(C)nc3-c3ccc(F)cc3)c2C1=O` at or above 7?
Key: NO

Exercise: Evaluate CC1CNCc2nccc(-c3cn(C)nc3-c3ccc(F)cc3)c2O1 (racemic) : pEC50 at minimum 7?
Key: YES

Exercise: Item `Cn1cc(-c2ccnc3c2C(=O)OC3)c(-c2ccc(F)cc2)n1` with pEC50 of 7 or above?
Key: YES

Exercise: Given the entry Cn1cc(-c2ccnc3c2C(=O)N(CC2CCOC2)C3)c(-c2ccc(F)cc2)n1 (centres unmarked) , answer whether its pEC50 meets or surpasses 7.
Key: NO

Exercise: API: above_or_equal(metric=pEC50, cutoff=7) for item `COCC(=O)N1Cc2nccc(-c3cn(C)nc3-c3ccc(F)cc3)c2C1`
Key: YES

Exercise: Does the molecule `CC(=O)N1Cc2nccc(-c3cn(C)nc3-c3ccc(F)cc3)c2C1` have recorded pEC50 that is 7 or more?
Key: YES

Exercise: Check the entry `Cc1ccc(CN2Cc3nccc(-c4cn(C)nc4-c4ccc(F)cc4)c3C2=O)cn1` : does pEC50 equal or exceed 7?
Key: YES

Exercise: Dear colleague, could you confirm whether `Cn1cc(-c2ccnc3c2CN(S(C)(=O)=O)C3)c(-c2ccc(F)cc2)n1` has pEC50 at or above 7?
Key: YES

Exercise: Is it the case that `COC(=O)C1(N2Cc3nccc(-c4cn(C)nc4-c4ccc(F)cc4)c3C2=O)CC1` has pEC50 reaching or exceeding 7?
Key: NO

Exercise: Determine whether measured pEC50 meets or exceeds 7 for `COCCCN1Cc2nccc(-c3cn(C)nc3-c3ccc(F)cc3)c2C1=O`
Key: NO

Exercise: Assess whether reported pEC50 for `CC(C)CN1Cc2nccc(-c3cn(C)nc3-c3ccc(F)cc3)c2C1=O` sits at 7 or higher.
Key: NO

Exercise: Please indicate if the recorded pEC50 for `Cn1cc(-c2ccnc3c2OCCNC3)c(-c2ccc(F)cc2)n1` meets or exceeds 7.
Key: YES

Exercise: Is pEC50 for `Cn1cc(-c2ccnc3c2CCC3)c(-c2ccc(F)cc2)n1` at or above 7?
Key: NO

Exercise: Tell me whether pEC50 is at least 7 here: `Cn1cc(CCN2Cc3nccc(-c4cn(C)nc4-c4ccc(F)cc4)c3C2=O)cn1`
Key: NO

Exercise: Please check the record Cn1cc(-c2ccnc3c2CCC3O)c(-c2ccc(F)cc2)n1 (centres unmarked) and state if its pEC50 is at or above 7.
Key: NO

Exercise: In plain terms: is recorded pEC50 at least 7 for `Cn1cc(-c2ccnc3c2CN(C(=O)C2CCOCC2)C3)c(-c2ccc(F)cc2)n1` ?
Key: YES

Exercise: For this molecule, is measured pEC50 7 or higher? `COC[C@H]1CCC[C@H]1N1Cc2nccc(-c3cn(C)nc3-c3ccc(F)cc3)c2C1=O`
Key: NO

Exercise: Does the reported pEC50 for `Cn1cc(-c2ccnc3c2CN(C(=O)C2CC2)C3)c(-c2ccc(F)cc2)n1` fall at or above the 7 mark?
Key: YES

Exercise: # check: pEC50 of `Cn1cc(-c2ccnc3c2CN(Cc2ccccc2)C3)c(-c2ccc(F)cc2)n1` is greater than or equal to 7
Key: NO

This collection of values is drawn from patent US8536164B2.
